Assign EC50 to each entry below.
Biological target: T1, cynomolgus monkey CD71 extracellular domain (CD71-ECD) (cynomolgus monkey, UniProt H9EXL1 89-760 (rhesus entry))
T1 construct: extracellular domain; It was captured on a Neutravidin plate; also called cynomolgus CD71-ECD
T1 sequence (chain, as listed by the source): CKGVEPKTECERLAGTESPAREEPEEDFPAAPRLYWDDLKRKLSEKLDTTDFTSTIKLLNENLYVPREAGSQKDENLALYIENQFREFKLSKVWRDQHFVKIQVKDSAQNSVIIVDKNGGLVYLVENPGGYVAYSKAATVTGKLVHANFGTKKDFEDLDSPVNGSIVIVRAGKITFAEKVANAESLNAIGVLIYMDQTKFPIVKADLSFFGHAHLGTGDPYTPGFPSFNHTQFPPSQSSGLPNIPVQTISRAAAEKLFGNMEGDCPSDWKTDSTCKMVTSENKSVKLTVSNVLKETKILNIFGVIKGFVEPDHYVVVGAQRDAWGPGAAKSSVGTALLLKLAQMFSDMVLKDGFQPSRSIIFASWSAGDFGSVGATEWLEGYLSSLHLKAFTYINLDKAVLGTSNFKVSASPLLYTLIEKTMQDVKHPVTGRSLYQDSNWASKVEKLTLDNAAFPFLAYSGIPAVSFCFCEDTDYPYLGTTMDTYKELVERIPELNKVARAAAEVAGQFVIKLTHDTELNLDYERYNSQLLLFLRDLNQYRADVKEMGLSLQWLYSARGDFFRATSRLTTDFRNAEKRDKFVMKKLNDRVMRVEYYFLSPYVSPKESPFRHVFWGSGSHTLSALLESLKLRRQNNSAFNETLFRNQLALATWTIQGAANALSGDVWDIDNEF
Assay: capture ELISA, 20 nM antigen on Neutravidin plate, FN3 titrated 250 to 0.3 nM
API: value field is a number in nM; no unit string.

Q. What does the record list as EC50 for CD71-binding FN3 domain of SEQ ID NO: 516 (designed binder, Tencon-based FN3 domain) MLPAPKNLVVSRVTEDSARLSWTAPDAAFDSFFIGYLEPQPPGEAISLWVPGSERSYDLTGLKPGTEYNVTIQGVKGGFPSSPLVAYFTT ?
A. 10.6

Q. Find the recorded EC50 belonging to CD71-binding FN3 domain of SEQ ID NO: 508 (designed binder, Tencon-based FN3 domain) MLPAPKNLVVSRVTEDSARLSWTAPDAAFDSFFIGYLEPQPPGEAITLSVPGSERSYDLTGLKPGTEYNVTIQGVKGGFPSEPLIAIFTT and report it.
A. 14.2
